method.notes: NCI Yeast Anticancer Drug Screen. Data for the mec2-1 strain (AID 157)
study.conditions: S. cerevisiae mec2-1 strain, at 50.0 µM (retest, dose inferred, filed as 5.0)
Protocol: Growth inhibition of yeast strains with defined genetic alterations is measured as a screen for potential anti-cancer activity. Selected strains with alterations in DNA damage repair or cell cycle control were exposed to compounds and growth inhibition was measured relative to vehicle treated controls. The strain used in this assay is mec2-1
About 79,000 compounds went through this panel and 15% of them were active in at least one assay; those are over-represented in the sample as a whole. Activity calls are given as the source filed them. Cut-off read from the data, not from the text of the source: active = growth inhibition above about 70%; inactive = the rest.
A correct response names exactly one class from active, inactive

Look over these answered cases.
1) COc1ccccc1[As]=[As]c1ccccc1OC (stereo not drawn): active
2) C#CC(O)(CC)CC: inactive
3) C/C(=C\c1ccccc1)[N+](=O)[O-]: active
4) CCO[C@@H]([CH2][Hg][Cl])[C@](C)([CH2][Hg][Cl])OCC: active
5) CC1=C[C@H]2O[C@H]3C[C@H]4OC(=O)/C=C\C=C\C(=O)OCC[C@@H](C)C(O)C(=O)OC[C@@]2(CC1)[C@@]4(C)[C@]31CO1 (stereo partly drawn): active

# input for lookup
Called result for `CC(C)CCC1(CCSC(=O)S)C(=O)NC(=O)NC1=O` inactive
